Record form. Attribute: TGI. Fill in for each entry.
- System: MDA-MB-468 breast
- Assay info: NCI tumour cell line growth inhibition, 48 h
Numbers only; they are read as µM.

Fill in: TGI on MDA-MB-468 breast, entry "C=CCN(/C=C1/C(=O)O[C@H](COC)[C@@]2(C)C1=C(O)C(=O)C1=C2[C@H](OC(C)=O)C[C@]2(C)C(=O)CC[C@@H]12)CC=C"
0.779

Fill in: TGI on MDA-MB-468 breast, entry CC(C)CNCC(O)COc1ccc(C(C)(C)c2ccc(OCC(O)CNCC(C)C)cc2)cc1 (configuration not stated)
4.91

Fill in: TGI on MDA-MB-468 breast, entry "COc1ccccc1/C=C/[N+](=O)[O-]"
3.6

Fill in: TGI on MDA-MB-468 breast, entry "COc1ccc2nc(Cl)c(-c3cc(-c4ccccc4)nc(=O)[nH]3)cc2c1"
33.8

Fill in: TGI on MDA-MB-468 breast, entry O=[N+]([O-])c1ccc(S(=O)Cc2ccccc2)c([N+](=O)[O-])c1 (configuration not stated)
3.13

Fill in: TGI on MDA-MB-468 breast, entry "Cc1ccc(/C(=N\N=C(N)N)c2ccccc2)cc1"
5.83

Fill in: TGI on MDA-MB-468 breast, entry Clc1ccc(N2N=C(c3cccc(Nc4ccncc4)c3)CC2c2ccc3c(c2)OCO3)cc1 (configuration not stated)
3.08

* * *

- Test system: MDA-MB-468 breast
- Assay info: NCI tumour cell line growth inhibition, 48 h
Measure: GI50

Check the records and state GI50 for "CCCc1c(CC)c(=N)c2ccccc2n1C"
3.22 µM

Check the records and state GI50 for "COc1ccc2nc(Cl)c(-c3cc(-c4ccccc4)nc(=O)[nH]3)cc2c1"
11.4 µM

Check the records and state GI50 for CC(C)CNCC(O)COc1ccc(C(C)(C)c2ccc(OCC(O)CNCC(C)C)cc2)cc1 (centres undefined)
2.18 µM

Check the records and state GI50 for "FC(F)(F)c1cc(-c2nnc3n2N=C(N2CCCC2)CS3)cc(C(F)(F)F)c1"
32 µM

Check the records and state GI50 for "COc1ccc(Nc2ncc(Br)c(NCCCNC(=O)C3CCC3)n2)cc1"
15.4 µM

Check the records and state GI50 for "CC1(C)CC[C@H](Nc2ncc(C(F)(F)F)c(-c3c[nH]c4c(P(C)(C)=O)c(C#N)ccc34)n2)CN1"
1.22 µM

Check the records and state GI50 for "COc1ccc(-c2nc3sc(-c4ccc(Cl)cc4)cn3n2)cc1"
2.08 µM

Check the records and state GI50 for "CCCCCCCNc1nc(C(=O)OCC)ncc1-c1ccc(C(F)(F)F)cc1"
23.4 µM

Check the records and state GI50 for "C=C1SC(=Nc2c(C)cc(C)cc2C)N(C(=O)c2sc3ccccc3c2Cl)C12CCCCC2"
> 100 µM

* * *

- Test system: A498 renal
- Assay info: NCI tumour cell line growth inhibition, 48 h
Measure: GI50

Check the records and state GI50 for "O=C1Nc2cc(-c3ccc(NS(=O)(=O)c4ccc([N+](=O)[O-])cc4)cc3)ccc2/C1=C/c1ccc[nH]1"
18.4 µM

Check the records and state GI50 for "O=C(Nc1ccc(OCC(=O)c2ccccc2)cc1)Nc1ccc(Cl)c(C(F)(F)F)c1"
3.59 µM

Check the records and state GI50 for "CCn1c(SCC(=O)Nc2ccc(-c3nc4ccccc4[nH]3)cc2)nc2ccccc2c1=O"
1.61 µM

Check the records and state GI50 for "COc1ccc2nc(Cl)c(-c3cc(-c4ccccc4)nc(=O)[nH]3)cc2c1"
26.1 µM
